Experiment: CCTE_Shafer_MEA_dev_inter_network_spike_interval_mean: CCTE's Neural Network Formation Assay for Mean Inter-network Spike Interval, Shafer Lab (AID 2284047)
Protocol: CCTE_Shafer_MEA_dev assay is conducted using Axion Biosystems 48 well microelectrode array (MEA) plates and Maestro recording system. Each well of the MEA plate contains a grid of 16 microelectrodes embedded in the culture surface. Electrically active cells, such as neurons, can be cultured over the electrodes, and electrical activity in these cells can be recorded extracellularly. […]
Active and inactive are the calls of the source. How the source made its calls: active means hit-call score of the fitted dose curve at least 0.9, where 1 is the maximum; inactive means score below 0.9.
The reply should be one of these categories: True for active, False for inactive

In [3]: df
Out[3]:
                                   molecule  class_label
0          COP(=O)(OC)SCN1C(=O)c2ccccc2C1=O        False
1           Brc1ccc(Oc2ccc(Br)cc2Br)c(Br)c1        False
2  CC1CCCC1.[C-]#[O+].[C-]#[O+].[C-]#[O+].[Mn]        False
3  C=CCN1CC[C@]23c4c5ccc(O)c4O[C@H]2C(=O)CC[C@@]3(O)[C@H]1C5        False
4  CC1(C)[C@H](C(=O)O[C@H](C#N)c2cccc(Oc3ccccc3)c2)[C@@H]1C=C(Br)Br        False
5                        O=C(O)CNCP(=O)(O)O        False
6                        [Cd+2].[Cl-].[Cl-]         True
7        CC(=O)[O-].CC(=O)[O-].O.O.O.[Pb+2]        False
8                  CCOP(=O)(OCC)SCSC(C)(C)C        False
9                        CCOP(=O)(OCC)SCSCC        False

Exercise: What call does the record list for `O=[As]O` ?
Key: False

Exercise: # outcome recorded in this test, key = CCCCC(CC)COC(=O)c1cc(Br)c(Br)c(Br)c1Br (stereo unspecified)
Key: False

Exercise: What classification did `[CH3][Sn]([CH3])[CH3]` end up with in this test?
Key: False

Exercise: Name the outcome recorded for `NCCc1cc(O)c(O)cc1O` in the assay.
Key: False

====

Molecular target: Hepatocyte nuclear factor 4-alpha (Homo sapiens) (UniProt P41235)
Sequence (P41235 whole entry, looked up): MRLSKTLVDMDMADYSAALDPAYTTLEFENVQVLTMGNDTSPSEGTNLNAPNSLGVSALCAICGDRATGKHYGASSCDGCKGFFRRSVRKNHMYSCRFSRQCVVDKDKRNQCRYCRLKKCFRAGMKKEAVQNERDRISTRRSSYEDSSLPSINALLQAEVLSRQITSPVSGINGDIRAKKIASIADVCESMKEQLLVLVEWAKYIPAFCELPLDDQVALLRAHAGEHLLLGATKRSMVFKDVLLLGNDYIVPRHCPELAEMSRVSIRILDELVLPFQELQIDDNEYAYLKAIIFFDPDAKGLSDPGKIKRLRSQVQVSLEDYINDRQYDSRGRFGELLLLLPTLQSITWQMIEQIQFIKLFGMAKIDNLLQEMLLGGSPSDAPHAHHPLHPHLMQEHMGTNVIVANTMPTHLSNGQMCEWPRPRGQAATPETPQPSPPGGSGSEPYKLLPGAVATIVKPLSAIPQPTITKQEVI
Test: ATG_HNF4a_TRANS: Attagene TRANS-FACTORIAL HepG2 Assay for human Hepatocyte Nuclear Factor 4 alpha (HNF4a) (AID 2282982)
Conditions: HepG2 HNF4a transactivation reporter, mRNA readout
Procedure: ATG_TRANS is a cell-based, multiplexed-readout assay that uses HepG2, a human liver cell line, with measurements taken at 24 hours after chemical dosing in a 24-well plate.ATG_HNF4a_TRANS is one of 30 assay component(s) measured or calculated from the ATG_TRANS assay. […] This assay endpoint, ATG_HNF4a_TRANS, was analyzed in the positive analysis fitting direction relative to DMSO as the negative control and baseline of activity. […]
Results filed as inconclusive are left out. The source made the active and inactive calls. Rule for the calls: active = hit-call score of the fitted dose curve at least 0.9, where 1 is the maximum; inconclusive = response in the unintended direction; inactive = score below 0.9.
API: response.call in 1.0 = active, 0.0 = inactive

Past entries and their recorded results:
>>> print(df.to_string())
                                   molecule                         target_under_test  class_label
0                 c1ccc(Nc2ccc3ccccc3c2)cc1  Hepatocyte nuclear factor 4-alpha (Homo sapiens) (UniProt P41235)          0.0
1                          N#Cc1cccc(C#N)c1  Hepatocyte nuclear factor 4-alpha (Homo sapiens) (UniProt P41235)          0.0
2  CCc1cc(C)cc(CC)c1-c1c(OC(=O)C(C)(C)C)n2n(c1=O)CCOCC2  Hepatocyte nuclear factor 4-alpha (Homo sapiens) (UniProt P41235)          0.0
3                             O=[N+]([O-])O  Hepatocyte nuclear factor 4-alpha (Homo sapiens) (UniProt P41235)          0.0
4                 Nc1ccccc1C(=O)OCCc1ccccc1  Hepatocyte nuclear factor 4-alpha (Homo sapiens) (UniProt P41235)          0.0

Exercise: Outcome logged for CN1C(=O)CCS(=O)(=O)C1c1ccc(Cl)cc1 (stereo unspecified) in this assay:
Key: 0.0

Exercise: Field: outcome | Entry: `O=C=Nc1ccccc1`
Key: 0.0

Exercise: // outcome(item) with item = `O=C(O)CCl`
Key: 0.0

Exercise: Just curious, what result did `CCC(C)(C)O` get here?
Key: 0.0

Exercise: Which outcome was entered for the molecule `C=CC(=O)OCCO` in this test?
Key: 0.0

Exercise: Any idea what this test logged for `Nc1ccc(-c2ccc(N)c(N)c2)cc1N` ?
Key: 0.0

Exercise: // return assay outcome for `O=c1c2ccccc2c(=O)c2c1cc(Cl)c1[nH]c3c([nH]c12)c(Cl)cc1c(=O)c2ccccc2c(=O)c13`
Key: 0.0

Exercise: Hello, I am checking results. What call was entered for `[CH3][Sn]([Cl])([Cl])[Cl]` ?
Key: 0.0

Exercise: Please share the test call associated with `CN(C)C(=O)C(c1ccccc1)c1ccccc1` .
Key: 0.0

Exercise: Per the records of this test, what outcome belongs to CC(Cc1ccc(C(C)(C)C)cc1)CN1C[C@@H](C)O[C@@H](C)C1 (stereo partly specified) ?
Key: 0.0

Exercise: Give the logged outcome of this assay for the following molecule: `SCc1ccco1`
Key: 0.0

Exercise: Record request — test call for `O=S(=O)(O)OOS(=O)(=O)O`
Key: 0.0

Exercise: Fill in: this test's call for `N#CC(c1ccccc1)c1ccccc1` is ___
Key: 0.0

Exercise: Any idea what this test logged for `CC(=O)C=Cc1ccccc1` ?
Key: 0.0

Exercise: GET /call?item= `CCCCCCCCCCCCCCCC[N+](C)(C)C` returns the recorded outcome of this test.
Key: 1.0

Exercise: Recorded call for `C[N+](C)(C)CC(=O)O` ?
Key: 0.0

Exercise: What was the test verdict on `CC[N+](=O)[O-]` ?
Key: 0.0

Exercise: Recorded test outcome, item `BrCBr`
Key: 0.0

Exercise: Test call for this molecule, please: `Clc1ccc(-c2ccccc2)cc1`
Key: 0.0

====

assay: ATG_M_06_TRANS: Attagene TRANS-FACTORIAL HepG2 Assay for M06 Transcription Factor (Internal Marker) (AID 2282983); settings: HepG2 Attagene TRANS M06 internal marker reporter;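 further: reporter transcript level by RT-PCR then capillary electrophoresis fluorescence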
Inconclusive results are not listed. Activity calls are given as the source filed them. Rule for the calls: active = hit-call score of the fitted dose curve at least 0.9, where 1 is the maximum; inconclusive = response in the unintended direction; inactive = score below 0.9.
measured_metric: outcome

>>> print(df.to_string())
                                   compound  reported_result
0                         Nc1ccc(Cl)c(Cl)c1         inactive
1                   O=[N+]([O-])C=Cc1ccccc1         inactive
2              CC(C)COP(=O)(OCC(C)C)OCC(C)C         inactive
3  COC(C)(C)CCC[C@H](C)C/C=C/C(C)=C/C(=O)OC(C)C         inactive
4  Cc1ccc(OP(=O)(Oc2ccc(C)cc2)Oc2ccc(C)cc2)cc1 (tested in a mixture with another compound)         inactive

Exercise: Input `NNc1ccccc1` , output reported outcome.
Key: inactive

Exercise: Quickly give me recorded outcome for `C[C@]12CC[C@H]3[C@@H](CC[C@@]45O[C@@H]4C(O)=C(C#N)C[C@]35C)[C@@H]1CC[C@@H]2O`
Key: inactive

Exercise: Provide outcome value for the following compound: `S=c1[nH]c2ccccc2[nH]1`
Key: inactive

Exercise: Respond only with outcome recorded for CC(C)(C)C(O)C(Oc1ccc(-c2ccccc2)cc1)n1cncn1 (stereo not drawn)
Key: inactive

Exercise: Specify measured outcome for `Cc1ccccc1CCl` .
Key: inactive

Exercise: Give outcome for the following compound: `CN(C)N`
Key: inactive

Exercise: # return recorded outcome for input `CCC(=O)c1ccc(Cl)cc1`
Key: inactive

Exercise: Note outcome for the compound shown: `N#Cc1cccc(C#N)c1`
Key: inactive

====

molecular target: Cellular tumor antigen p53 (Homo sapiens); assay: TOX21_p53_BLA_p3_ratio: Tox21 HCT-116 p53 Agonism Beta-lactamase Assay, Ratio, Phase 3 (AID 2283596)
Inconclusive results are not listed. Activity calls are given as the source filed them. How the source made its calls: active means hit-call score of the fitted dose curve at least 0.9, where 1 is the maximum; inconclusive means response in the unintended direction; inactive means score below 0.9.
The categories you may choose from are Yes (active), No (inactive)

>>> print(df.to_string())
                            molecule_smiles  class_label
0                                      CCBr           No
1  C[C@]12C/C(=C/O)C(=O)C[C@@H]1CC[C@@H]1[C@@H]2CC[C@@]2(C)[C@H]1CC[C@]2(C)O           No
2  C#C[C@]1(O)CC[C@H]2[C@@H]3CCC4=CC(=O)CCC4=C3C=C[C@@]21CC           No
3                             CC(=O)C(Cl)Cl           No
4  O=C(CCN1CC1)OCC(CO)(COC(=O)CCN1CC1)COC(=O)CCN1CC1           No

Exercise: Hi, sorry to bother you, what did the test record for `C=CCO` ?
Key: No

Exercise: Could you check what this test reported for `c1ccc(C2(N3CCCC3)CCCCC2)cc1` ?
Key: Yes

The values you see were collected from PubChem BioAssay (EPA / NIEHS).
